# System: E. faecalis 29212
readout type: MIC (µg/mL)
Note: unit µg/mL is implicit; provide only the numeric part.

Here are 3 compounds together with their reported answers.
Cc1cccc2sc(C(=O)[C@H]3CC[C@H](NCc4ccc5c(c4)NC(=O)CS5)CC3)nc12 = 0.5
COc1cccc2sc(C(=O)C3CCN(CC(=O)c4ccc5c(c4)NC(=O)CO5)CC3)nc12 = 16
COc1cccc2sc(C(=O)[C@H]3CC[C@H](NCc4ccc5c(n4)NC(=O)CS5)CC3)nc12 = 8

Data request: Could you please provide reported MIC for O=C1CSc2ccc(CNC3CCC(C(=O)c4nc5ccccc5s4)CC3)cc2N1 (stereo not drawn) ? Thanks!
Data returned: 0.5

Data request: Report MIC for `COc1cccc2sc(C(=O)[C@@H]3CC[C@@H](NCc4ccc5c(n4)NC(=O)CS5)CO3)nc12`
Data returned: 2

Data request: Report MIC, nothing else, for this compound: `COc1cccc2sc(O[C@H]3CC[C@H](NCc4ccc5c(c4)NC(=O)CS5)CC3)nc12`
Data returned: 16
